Numbers sourced from patent US8329739B2.

test system: LPL (lipoprotein lipase) (Mus musculus)
Construct: endogenous in cells; host or cells: C2C12 cells, differentiated
Sequence (P11152 28-474): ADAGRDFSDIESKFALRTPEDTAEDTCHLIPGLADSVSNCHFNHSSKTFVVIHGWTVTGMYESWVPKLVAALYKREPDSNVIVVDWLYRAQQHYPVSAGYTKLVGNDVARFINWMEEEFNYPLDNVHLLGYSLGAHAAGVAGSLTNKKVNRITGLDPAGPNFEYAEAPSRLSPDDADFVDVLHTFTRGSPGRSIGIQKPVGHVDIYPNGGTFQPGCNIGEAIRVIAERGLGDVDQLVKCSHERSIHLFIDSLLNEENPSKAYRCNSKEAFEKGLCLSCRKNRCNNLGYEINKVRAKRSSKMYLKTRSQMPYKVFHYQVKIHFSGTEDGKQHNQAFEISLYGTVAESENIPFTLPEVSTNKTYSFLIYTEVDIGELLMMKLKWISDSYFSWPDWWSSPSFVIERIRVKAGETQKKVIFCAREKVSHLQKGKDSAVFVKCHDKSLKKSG
experimental protocol: Confirmation test of LPL activation effect in mouse skeletal muscle cells (C2C12 cells)
Assay type: cell-based
study conditions: amount of addition 10 μM, 8 hours exposure, vs control group
quantity kind: Rate of increase in LPL activity (%)

Worked examples follow.
[[record]]
structure_smiles_string = "COc1cc(-c2c[nH]c(-c3ccccc3)n2)ccc1OCc1ccc(Br)cc1F.Cl"
test_system = "LPL (lipoprotein lipase) (Mus musculus)"
quantity_kind = "Rate of increase in LPL activity"
endpoint_result = 43

[[record]]
structure_smiles_string = "COc1cc(OCc2ccc(Cl)cc2F)ccc1-c1c[nH]c(-c2ccccc2)n1.Cl"
test_system = "LPL (lipoprotein lipase) (Mus musculus)"
quantity_kind = "Rate of increase in LPL activity"
endpoint_result = 71

[[record]]
structure_smiles_string = "COc1cc(-c2c[nH]c(-c3ccoc3)n2)ccc1OCc1ccccc1"
test_system = "LPL (lipoprotein lipase) (Mus musculus)"
quantity_kind = "Rate of increase in LPL activity"
endpoint_result = 31

[[record]]
structure_smiles_string = "COc1cc(OCc2ccc(C#N)cc2)ccc1-c1c[nH]c(-c2ccsc2)n1"
test_system = "LPL (lipoprotein lipase) (Mus musculus)"
quantity_kind = "Rate of increase in LPL activity"
endpoint_result = 24


[a] COc1cc(OCc2ccc(Br)cc2F)ccc1-c1c[nH]c(-c2ccc(F)c(Cl)c2)n1
[b] COc1cc(OCc2ccc(Br)cc2F)ccc1-c1c[nH]c(-c2ccc(C)cc2)n1
[c] COc1cc(OCc2ccc(Cl)cc2)ccc1-c1c[nH]c(-c2cccc(Cl)c2)n1.Cl
[d] COc1cc(-c2c[nH]c(-c3ccc(F)cc3)n2)ccc1OCc1ccccc1
Query block: Order these by Rate of increase in LPL activity, descending, and give the full ranking. Write the labels in rank order as requested.
Result block: b, a, d, c
(b: 53%, a: 30%, d: 6%, c: 4%)
